Values from paper PMC3904261

target: CGRP receptor (calcitonin receptor-like receptor in complex with receptor activity-modifying protein 1) (human (endogenous in SK-N-MC), UniProt Q16602 23-461; O60894 27-148); assay: cell-based or functional assay
Sequence (Q16602 23-461, chain 1 of 2): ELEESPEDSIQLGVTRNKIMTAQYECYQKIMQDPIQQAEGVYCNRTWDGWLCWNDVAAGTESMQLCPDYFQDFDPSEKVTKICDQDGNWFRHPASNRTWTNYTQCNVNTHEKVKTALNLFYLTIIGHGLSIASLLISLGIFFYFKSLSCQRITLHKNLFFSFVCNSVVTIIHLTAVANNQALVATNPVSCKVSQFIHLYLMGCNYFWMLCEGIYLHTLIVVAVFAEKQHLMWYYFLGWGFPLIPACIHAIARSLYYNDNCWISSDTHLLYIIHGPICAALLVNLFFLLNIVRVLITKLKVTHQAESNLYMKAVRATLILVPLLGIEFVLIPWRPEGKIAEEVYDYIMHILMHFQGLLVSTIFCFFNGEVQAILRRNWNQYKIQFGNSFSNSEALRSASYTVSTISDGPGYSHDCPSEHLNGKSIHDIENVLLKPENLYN
Sequence (O60894 27-148, chain 2 of 2): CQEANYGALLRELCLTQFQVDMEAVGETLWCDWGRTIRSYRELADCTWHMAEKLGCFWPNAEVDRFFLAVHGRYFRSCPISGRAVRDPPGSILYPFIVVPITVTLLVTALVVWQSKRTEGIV
Bridge positions count the residues as written; N and C are the ends. Ends that are not written are not given here.
MEASUREMENT_KIND: pEC50, cAMP production in SK-N-MC cells

BINDER	pEC50, cAMP production in SK-N-MC cells
ACDTAACVTHRLAGLLSRSGGVVKNNFVPTNVGSKAF-NH2 (disulfide 2-7) [[Ala^6]-CGRP]	6.59
ACDTASCVTHRLAGLLSRSGGVVKNNFVPTNVGSKAF-NH2 (disulfide 2-7) [[Ser^6]-CGRP]	7.27
CCDTATCVTHRLAGLLSRSGGVVKNNFVPTNVGSKAF-NH2 (disulfide 2-7; also: Cys1 Acm protected, removal not given here) [[Cys^1]-CGRP]	7.7
ACDAATCVTHRLAGLLSRSGGVVKNNFVPTNVGSKAF-NH2 (disulfide 2-7) [[Ala^4]-CGRP]	7.43
